Target: T1, mouse Claudin-6 (CLDN6) (mouse, UniProt Q9Z262 1-219)
T1 construct: whole, on cells; GFP fusion on engineered HEK293T cells; also called Mouse CLDN6; murine CLDN6
T1 sequence (looked up): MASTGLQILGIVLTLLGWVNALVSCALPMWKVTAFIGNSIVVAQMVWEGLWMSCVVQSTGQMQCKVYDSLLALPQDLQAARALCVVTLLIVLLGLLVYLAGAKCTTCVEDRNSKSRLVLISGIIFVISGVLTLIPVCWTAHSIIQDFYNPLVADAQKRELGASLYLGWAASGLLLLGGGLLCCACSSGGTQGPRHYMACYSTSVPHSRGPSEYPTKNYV
Experiment: FACS, 293T clone expressing mouse CLDN6, dose not stated (2nd Ab only 1061.72)
FACS fluorescence reference
When you answer, write just the number.

Take a look at these entries with their results.
[
  {
    "BINDER": "AB4-7 (antibody, V domains shown, humanized) VH: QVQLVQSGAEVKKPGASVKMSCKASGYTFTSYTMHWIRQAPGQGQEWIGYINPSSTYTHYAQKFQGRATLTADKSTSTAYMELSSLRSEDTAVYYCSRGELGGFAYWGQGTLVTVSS VL: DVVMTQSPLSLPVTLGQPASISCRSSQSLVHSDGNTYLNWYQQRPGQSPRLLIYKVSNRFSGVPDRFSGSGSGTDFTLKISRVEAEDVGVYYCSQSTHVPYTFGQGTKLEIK",
    "FACS fluorescence": 6640
  },
  {
    "BINDER": "AB4-12 (antibody, V domains shown, humanized) VH: QVQLVQSGAEVKKPGASVKMSCKASGYTFTSYTMHWIRQAPGQGQEWIGYINPSSTYTHYIKKFKDRATLTADKSTSTAYMELSSLRSEDTAVYYCSRGELGGFAYWGQGTLVTVSS VL: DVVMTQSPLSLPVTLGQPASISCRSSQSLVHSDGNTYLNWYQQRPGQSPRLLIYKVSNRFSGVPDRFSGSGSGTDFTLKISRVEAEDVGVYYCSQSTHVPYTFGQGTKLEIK",
    "FACS fluorescence": 1130
  }
]

Record request: FACS fluorescence value, item AB1-8 (antibody, V domains shown, humanized) VH: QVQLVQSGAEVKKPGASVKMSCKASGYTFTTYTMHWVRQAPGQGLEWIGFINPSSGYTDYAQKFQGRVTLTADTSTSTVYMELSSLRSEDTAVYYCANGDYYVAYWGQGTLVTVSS VL: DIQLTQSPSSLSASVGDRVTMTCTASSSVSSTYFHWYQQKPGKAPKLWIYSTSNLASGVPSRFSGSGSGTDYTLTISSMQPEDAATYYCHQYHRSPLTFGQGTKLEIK
122000
